test system: SK-OV-3 ovarian; assay: NCI-60 one-dose screen, 48 h (100 = growth as untreated, 0 = no growth, -100 = all killed); settings: 10 µM unless noted
This is part of a sample that, as a whole, favours compounds with a hit. Of some 83,000 tested, about 20% had one in any assay.
Assign growth to each entry below.
Report as a plain number; the unit % is understood.

What does the record list as growth for "COc1ccc(/C=C2\COc3ccc(O)cc3C2=O)cc1OC" ?
93.1

What growth value was documented for this compound, "CCCCNCC(=O)Nc1ccc(C(=O)OCC)cc1" ?
105

Which growth reading was recorded for the compound "Clc1ccc(-c2cn(-c3ccccc3)c(-c3ccccc3)n2)cc1" ?
102

Requested field: growth. Item: "COc1cc2c(=O)n(CCCn3ccnc3)c3c4cc5c(cc4ccc3c2cc1OC)OCO5"
-11.4

Given the entry "C=CC(=O)N[C@@H](Cc1ccc(-c2cc(Cl)cc(Cl)c2)cc1)[C@@H](O)[C@H](O)C(=O)O" , report its measured growth.
91.6

Could you share which growth value was measured for "Clc1ccc(-c2nnc(Cn3ccnc3)o2)cc1" ?
107

What measured growth goes with "O=C(/C=C/c1ccccc1)c1ccc2ccccc2c1" ?
103

Quick one: growth of "COc1ccc(-c2nnc(SCC(=O)NC3=NN=C(c4ccccc4)CS3)o2)cc1" ?
93.5

I'd like to know its growth. The compound in question is "N#Cc1c(NC(=O)c2cccc(C(F)(F)F)c2)sc2c1CCC(=O)C2"
3.53

Need growth of "CN(C)CCOC(=O)Nc1ccc(Cl)cc1" , thanks.
96.9

Look at this compound and give its reported growth. "COc1cc(-c2ncn(/C=C\c3nnco3)n2)cc(C(F)(F)F)c1"
38.9

State the recorded growth for this entry: O=[N+]([O-])c1ccccc1C(O)Cc1ccc2ccccc2n1 (stereo not drawn)
84.9

What does the record list as growth for "C/C(=N\NC(N)=S)c1nc2ccc(Cl)cc2[nH]1" ?
47.1

Give its growth value. Item: "O=C1N/C(=N/O)S/C1=C/c1cn(-c2ccccc2)nc1-c1ccccc1"
77.6

# growth lookup, item "NC(=O)c1c(NC(=O)c2ccccn2)sc2c1CCC(=O)C2"
95.6

Recorded growth for O=c1[nH]c(=O)n(C2CC(O)C(CO)O2)cc1CO (stereo not drawn) , please?
107

Name the reported growth value associated with the compound CSc1nc(N)c(CNC(C)c2ccccc2)c(=O)n1C (stereo not drawn)
97.5

// query growth value for entry "CCNCCNc1cc(-c2ccc(C(F)(F)F)cc2)c(C#N)c2nc3cc(Cl)c(Cl)cc3n12"
67.6

I have this compound here, "CS(=O)(=O)c1ccc(-c2nc3cc(Cl)ccc3n2CC(=O)NO)cc1" , and I need its recorded growth.
96.4

Recorded growth of "Cc1cc(C)on1" , please.
111

Name the reported growth value associated with the compound O=C1Nc2ccccc2SC1C1SC(=S)N(Cc2ccccc2)C1=O (stereo not drawn)
118

Can you share its growth? I mean this compound: "C=C1C(=O)O[C@H]2[C@H]1CC/C(COC(=O)/C=C\C(=O)NCc1ccc(Cn3c(=O)sn(CCCI)c3=O)cc1)=C\CC[C@@]1(C)O[C@@H]21"
42.9

GET /values?readout=growth&item= COc1ccc(C2CC(c3cnccn3)=NN2)cc1OC (stereo not drawn)
105

# query: growth of entry O=c1ccn(C2OC(F)(CO)C(O)C2F)c(=O)[nH]1 (stereo not drawn)
93.4

# query: growth of entry "CCN(CC)S(=O)(=O)c1ccc(O)c(NC(=O)c2[nH]c(C)c(C(C)=O)c2CCc2ccc(Cl)cc2)c1"
37.8

Fill blank: measured growth of the compound "CCCCCCCSc1ccc(C(=O)O)cc1" is ____.
102

// growth lookup, key: "CCNCCNc1cc(C2CCCC2)c(C#N)c2nc3ccccc3n12"
40.5

Fill in: growth of "O=S(=O)(NCCNc1cc(-c2c(-c3cccc(O)c3)nc3sccn23)ccn1)c1ccc(Br)cc1" is ___
73.7

Recorded growth for N#Cc1c(-c2ccccc2)nc(SCC2CO2)nc1N1CCOCC1 (stereo not drawn) , please?
28.1

Using the record for "CC(C)OC(=O)NNC(=O)c1ccncc1" , report its growth.
106

Which measured growth value corresponds to "CC(=O)c1ccc2c(c1)CCN2" ?
99.9

So what does the record say about growth for "COc1ccc(/C=C2\COc3ccc(O)cc3C2=O)c(OC)c1" ?
58

# get_value(readout='growth', item= "C=CC(=O)Nc1cccc(C)c1Nc1cc(-c2cccnc2Cc2c(C)c(OC)cc(OC)c2C)ncn1" )
28.7

Which growth is listed for O=C(O)C1C[C@](O)(c2ccc(F)cc2)[C@@H](c2ccc(F)cc2)O1 (stereo partly drawn) ?
97.5

If you can, please state the reported growth value of CCCCOc1nc2ccc(Cl)cc2cc1/C=C/C(=O)/C=C1/CC(c2cc3cc(Cl)ccc3nc2OCCCC)Nc2ccccc2N1 (stereo not drawn) .
86.1

Returns the measured growth for the input compound. Input: O=C1CSC(c2ccccc2)N1c1ccccc1 (stereo not drawn)
100

Using the record for "C=C1C(=O)O[C@H]2[C@H]1CC/C(C(=O)NCCCCCCCCNC(=O)/C1=C/CC[C@@]3(C)O[C@H]3[C@H]3OC(=O)C(=C)[C@@H]3CC1)=C\CC[C@@]1(C)O[C@@H]21" , report its growth.
93.5

Which growth is listed for "Clc1ccc(/C=C/c2nc(Nc3ccc(Cl)cc3)c3ccccc3n2)cc1" ?
96.6

Would you kindly share the measured growth for "COc1cc(NC(=O)c2cc(O)c(CC=C(C)C)c(O)c2)cc2c1O[C@]1(C)CC[C@@H](O)C(C)(C)[C@H]1C2" ?
21.5

Find the recorded growth belonging to "NS(=O)(=O)c1cnccc1-n1ccc(=O)c(S(N)(=O)=O)c1" and report it.
81.1

Could you tell me which growth is on file for "CC(C)(C)N1CC(OC(N)=O)C1" ?
113

Which growth value is on record for "Cc1ccc(NSc2ccccc2[N+](=O)[O-])cc1" ?
28.3

For the compound shown here, "CCNCCNc1cc(-c2cccc(C(F)(F)F)c2)c(C#N)c2nc3ccccc3n12" , give the reported growth.
-97.2

These entries and their values trace back to PubChem BioAssay (NCI).
